- Tested on: A2 receptor (Sus scrofa)
- Construct: Pig striatal membranes were prepared as previously described; from tissue; host or cells: pig striatum (membranes)
- Assay protocol: Affinity for adenosine receptors, displacement of 3H-NECA binding in striatal membranes (A2)
- Set-up: species or system Pig
- Cond: Pig striatal membranes, 3H-NECA label; mean ± spread; read-out: A2 (KD;nM)
Property name: Kd

query: Form field: reported Kd of Nc1nc(Nc2ccccc2)nc2c1ncn2[C@@H]1O[C@H](CO)[C@@H](O)[C@H]1O [CV 1808, 2-Phenylaminoadenosine, reference compound]
result: 269 nM

----------
- Tested on: A2 receptor (Sus scrofa, UniProt K9IW67)
- Construct: Pig striatal membranes were prepared as previously described; from tissue; host or cells: pig striatum (membranes)
- Sequence (K9IW67 1-409): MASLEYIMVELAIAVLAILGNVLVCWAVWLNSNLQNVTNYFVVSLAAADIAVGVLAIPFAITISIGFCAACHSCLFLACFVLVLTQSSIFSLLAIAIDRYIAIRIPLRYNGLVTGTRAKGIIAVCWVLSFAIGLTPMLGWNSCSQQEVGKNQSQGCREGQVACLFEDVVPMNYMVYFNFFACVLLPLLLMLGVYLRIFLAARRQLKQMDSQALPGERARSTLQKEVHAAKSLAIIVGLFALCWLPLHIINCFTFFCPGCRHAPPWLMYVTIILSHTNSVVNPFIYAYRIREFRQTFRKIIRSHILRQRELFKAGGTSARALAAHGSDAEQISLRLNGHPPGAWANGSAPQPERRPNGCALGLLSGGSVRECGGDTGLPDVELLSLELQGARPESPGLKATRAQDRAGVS
- Assay protocol: Affinity for adenosine receptors, displacement of 3H-NECA binding in striatal membranes (A2)
- Parameters: species or system Pig
Property name: Kd (µM)
Write the number in µM without appending the unit.

query: Query: Kd; subject: CO[C@@H]1[C@H](O)[C@@H](CO)O[C@H]1n1cnc2c(NC3CCCCC3)ncnc21 [Compound No. 7 1.5 H2O, hydrate]
result: 24.5
